Target: potassium channels (Sus scrofa, UniProt F1SR11)
Test: Functional potassium channel opening activity in isolated Landrace pig bladder strips (field-stimulated twitch)
Conditions: pig, maximal efficacy relative to P1075; field stimulation 0.05Hz, 0.5 milli-seconds at 20 volts
reported-property: Emax (%)
Quick note: give the figure in %, leave out the unit.

Some solved cases for reference:
>>> val("N#Cc1cccc(C2C3=C(CCCC3=O)NC3=C2S(=O)(=O)CC3)c1 (single isomer, unassigned; (-)) [Example 114]")
97
>>> val("O=S1(=O)CCC2=C1C(c1ccc(F)c(Cl)c1)C1=C(CCS1(=O)=O)N2 [Example 74]")
100
>>> val("O=C1CCCC2=C1C(c1ccc(F)c(Cl)c1)C1=C(CCS1(=O)=O)N2 (single isomer, unassigned; (+)) [Example 109]")
100
>>> val("O=S1(=O)CCC2=C1C(c1ccc(F)c(Br)c1)C1=C(CCS1(=O)=O)N2 [Example 53]")
100

With those in mind, consider the next compound.
**Query** Lab request: please report Emax under test system potassium channels (Sus scrofa, UniProt F1SR11) for O=C1CCC2=C1C(c1ccc([N+](=O)[O-])s1)C1=C(CCS1(=O)=O)N2 (centres unmarked) [Example 70]
**Result** 100

----------
Biological target: potassium channels (Sus scrofa, UniProt F1SR11)
Assay: Functional potassium channel opening activity in isolated Landrace pig bladder strips (field-stimulated twitch)
Conditions: ED50 for P1075 divided by ED50 for the test agonist, averaged over tissues
reported-property: Landrace Pig Bladder Index
Lab note: jot down the number only; don't add units.

>>> val("O=C1CCC2=C1C(c1ccc(Br)c(Br)c1)C1=C(CCS1(=O)=O)N2 (stereo not shown) [Example 72]")
0.53
>>> val("O=C1CCCC2=C1C(c1ccc(F)c(-c3ccco3)c1)C1=C(CCS1(=O)=O)N2 (single isomer, unassigned) [Example 165]")
0.035
>>> val("O=S1(=O)CCCC2=C1C(c1ccc(F)c(Br)c1)C1=C(CCCS1(=O)=O)N2 [Example 54]")
0.015

**Query** Field request: Landrace Pig Bladder Index | item: O=C1CCC2=C1C(c1ccc(F)c(Br)c1)C1=C(CCS1(=O)=O)N2 (single isomer, unassigned; (-)) [Example 86]
**Result** 0.069

----------
Molecular target: potassium channels (Sus scrofa, UniProt F1SR11)
Test: Functional potassium channel opening activity in isolated Landrace pig bladder strips (field-stimulated twitch)
Settings: ED50 for P1075 divided by ED50 for the test agonist, averaged over tissues
reported-property: Landrace Pig Bladder Index
Answer with a number only.

Example entries begin here.
>>> val("O=S1(=O)CCC2=C1C(c1ccc(Br)c(Br)c1)C1=C(CCS1(=O)=O)N2 [Example 124]")
0.025
>>> val("O=C1CCCC2=C1C(c1ccc(F)c(Cl)c1)C1=C(CCS1(=O)=O)N2 (stereo not shown) [Example 81]")
0.39
>>> val("O=S1(=O)CCC2=C1C(c1ccc(Cl)c(C(F)(F)F)c1)C1=C(CCS1(=O)=O)N2 [Example 122]")
0.012

// next entry
**Query** Landrace Pig Bladder Index lookup needed for O=C1CCCC2=C1C(c1ccc(F)c(I)c1)C1=C(CCS1(=O)=O)N2 (single isomer, unassigned) [Example 149] , thanks.
**Result** 1.2

----------
Target: potassium channels (Sus scrofa)
Assay: Functional potassium channel opening activity in isolated Landrace pig bladder strips (field-stimulated twitch)
Conditions: negative logarithm of ED50
reported-property: Landrace Pig Bladder pD2
Response field accepts a number only; no unit should be typed.

# example entries with known answers
>>> val("CC1=C(S(C)(=O)=O)C(c2ccc(F)c(Br)c2)C2=C(CCCC2=O)N1 (centres unmarked) [Example 25]")
5.4
>>> val("Cc1ccc(C2C3=C(CCCC3=O)NC3=C2S(=O)(=O)CC3)cc1[N+](=O)[O-] (single isomer, unassigned) [Example 126]")
6.3
>>> val("O=C1CCC2=C1C(c1ccc(F)c(Cl)c1)C1=C(CCS1(=O)=O)N2 (centres unmarked) [Example 61]")
7.1
>>> val("O=C1CCCC2=C1C(c1ccc(F)c(Cl)c1)C1=C(CCS1(=O)=O)N2 (single isomer, unassigned; (+)) [Example 109]")
6.6
>>> val("CC1=C(S(C)(=O)=O)C(c2cccc([N+](=O)[O-])c2)C2=C(CCCC2=O)N1 (centres unmarked) [Example 26]")
4.5
>>> val("N#Cc1cccc(C2C3=C(CCCC3=O)NC3=C2S(=O)(=O)CC3)c1 (centres unmarked) [Example 30]")
5.5
>>> val("O=S1(=O)CCCC2=C1C(c1ccc(F)c(Br)c1)C1=C(CCCS1(=O)=O)N2 [Example 54]")
4.9

Now consider the entry below.
**Query** What Landrace Pig Bladder pD2 value was documented for this compound, O=C1CCCC2=C1C(c1ccc3nonc3c1)C1=C(CCS1(=O)=O)N2 (single isomer, unassigned; (-)) [Example 98] ?
**Result** 5.6
